Biological target: MATE2 (Homo sapiens, UniProt Q86VL8)
Sequence (Q86VL8 whole entry): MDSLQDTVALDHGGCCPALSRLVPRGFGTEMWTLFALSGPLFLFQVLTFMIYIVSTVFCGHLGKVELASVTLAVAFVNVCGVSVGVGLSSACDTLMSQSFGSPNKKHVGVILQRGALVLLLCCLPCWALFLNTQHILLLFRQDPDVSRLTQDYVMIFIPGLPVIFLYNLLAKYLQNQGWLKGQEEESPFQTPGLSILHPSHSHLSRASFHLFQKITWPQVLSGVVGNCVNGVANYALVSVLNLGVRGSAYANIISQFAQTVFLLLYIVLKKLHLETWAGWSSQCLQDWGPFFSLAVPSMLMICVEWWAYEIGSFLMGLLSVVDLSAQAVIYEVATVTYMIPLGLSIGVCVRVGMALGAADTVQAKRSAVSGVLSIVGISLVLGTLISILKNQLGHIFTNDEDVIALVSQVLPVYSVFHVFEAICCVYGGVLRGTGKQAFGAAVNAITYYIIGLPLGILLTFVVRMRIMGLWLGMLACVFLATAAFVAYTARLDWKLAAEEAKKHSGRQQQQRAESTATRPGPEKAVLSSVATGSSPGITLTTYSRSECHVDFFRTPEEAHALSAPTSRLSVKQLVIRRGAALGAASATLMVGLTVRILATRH
readoutName: IC50

Lab note: measured IC50 of NC(N)=Nc1nc(CSCCC(N)=NS(N)(=O)=O)cs1 was 2500 nM

====

Test: clinical
Conditions: human, plasma, oral
readoutName: AUC(0-inf) (ng·h/mL)
One number for each entry, in ng·h/mL.

Lab note: measured AUC(0-inf) of CN(C)C(=N)N=C(N)N was 14600

====

Assay: clinical
Conditions: human, plasma, po, 1850 mg
readoutName: Tmax (h)
Give bare numbers, in h.

Lab note: measured Tmax of CN(C)C(=N)N=C(N)N was 2

====

Target: MATE1 (Homo sapiens)
Sequence (Q96FL8 whole entry): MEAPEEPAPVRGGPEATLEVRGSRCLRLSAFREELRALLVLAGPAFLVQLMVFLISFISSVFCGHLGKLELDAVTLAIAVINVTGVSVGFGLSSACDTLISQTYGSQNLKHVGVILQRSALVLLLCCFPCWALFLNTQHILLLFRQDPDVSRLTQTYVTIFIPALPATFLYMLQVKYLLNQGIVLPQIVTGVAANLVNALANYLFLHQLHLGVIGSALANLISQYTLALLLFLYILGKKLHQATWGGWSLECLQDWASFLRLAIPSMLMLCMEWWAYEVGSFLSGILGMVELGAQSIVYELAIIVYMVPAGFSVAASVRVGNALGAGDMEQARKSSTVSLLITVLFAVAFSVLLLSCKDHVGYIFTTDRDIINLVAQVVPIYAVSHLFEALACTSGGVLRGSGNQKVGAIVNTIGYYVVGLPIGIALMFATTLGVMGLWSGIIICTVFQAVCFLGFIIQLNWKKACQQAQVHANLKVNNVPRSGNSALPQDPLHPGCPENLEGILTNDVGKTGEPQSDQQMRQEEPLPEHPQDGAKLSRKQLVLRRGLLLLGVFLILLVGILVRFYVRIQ
readoutName: pIC50
One number for each entry, as −log10 of the molar value.

Lab note: measured pIC50 of NC(N)=Nc1nc(CSCCC(N)=NS(N)(=O)=O)cs1 [Famotidine, famotidine] was 6.60

====

Target: UniProtKB O15244
Sequence (O15244 whole entry): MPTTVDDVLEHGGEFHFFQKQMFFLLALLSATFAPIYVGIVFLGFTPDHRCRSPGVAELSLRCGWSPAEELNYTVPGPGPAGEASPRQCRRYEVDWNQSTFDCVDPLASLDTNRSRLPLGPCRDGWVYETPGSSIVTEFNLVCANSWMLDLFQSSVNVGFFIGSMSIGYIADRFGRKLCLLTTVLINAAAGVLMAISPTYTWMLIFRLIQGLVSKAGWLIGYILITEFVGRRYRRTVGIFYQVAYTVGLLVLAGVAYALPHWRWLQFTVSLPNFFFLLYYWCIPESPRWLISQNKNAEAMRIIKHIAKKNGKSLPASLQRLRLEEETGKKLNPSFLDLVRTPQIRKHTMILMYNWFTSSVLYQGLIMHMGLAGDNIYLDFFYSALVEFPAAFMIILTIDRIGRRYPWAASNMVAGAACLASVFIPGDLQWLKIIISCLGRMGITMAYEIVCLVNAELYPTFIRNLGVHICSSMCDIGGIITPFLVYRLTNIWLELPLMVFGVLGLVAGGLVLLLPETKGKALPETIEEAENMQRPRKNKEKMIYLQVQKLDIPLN
readoutName: IC50 (µM)
Answers are plain numbers, in µM.

Lab note: measured IC50 of NC(N)=Nc1nc(CSCCC(N)=NS(N)(=O)=O)cs1 [Famotidine, famotidine] was 66

====

Test: clinical
Conditions: human, plasma and urine, oral
readoutName: CL renal (mL/min)
One number for each entry, in mL/min.

Lab note: measured CL renal of CN(C)C(=N)N=C(N)N [Metformin, metformin] was 767
